# measured_on: Insulin-like growth factor 1 receptor (Homo sapiens)
# procedure_details: Inhibition of recombinant N terminal His6-tagged human IGF1R (959 to end) expressed in baculovirus infected Sf21 cells after 80 mins by caliper mobility shift assay
Listing of entries alongside the reported pIC50.
The scale used: pIC50 is minus the common logarithm of the concentration in molar units.

Here is how some molecules turned out for pIC50.
COCCCc1cc(Nc2nc(NCc3cc(C)no3)ncc2Br)[nH]n1: 4.70
Cc1cc(CCNc2ncc(Br)c(Nc3cc(C)[nH]n3)n2)on1: 4.80
Cc1cc(Nc2nc(NCc3cc(C)no3)ncc2Br)[nH]n1: 5.10
CC(C)c1cc(Nc2nc(NCc3cccnc3)ncc2Br)n[nH]1: 6.40
Cc1cc(Nc2nc(NCc3ccccn3)ncc2Br)n[nH]1: 4.90

[in] Missing value: pIC50, Insulin-like growth factor 1 receptor (Homo sapiens), entry Cc1cc(CNc2ncc(Br)c(Nc3cc(CCc4ccccc4)[nH]n3)n2)on1 . Fill in?
[out] 5.20
